Tested on: Plutella xylostella (Diamond Back Moth)
Assay method text: Example B5: Plutella xylostella (Diamond Back Moth), artificial diet, 24-well
Format: in vivo
Experimental conditions: 192 h, application rate of 200 ppm, eggs, 8 days after infestation, read-out: control in at least one of the two categories (mortality or growth inhibition)
Reported values of percent control (mortality or growth inhibition) at 200 ppm for individual entries
Property name: percent control (mortality or growth inhibition) at 200 ppm

>  <Molecule>
CC(NC(=O)c1cc(OC(F)(F)F)cc(C2(C#N)CC2)c1)c1nccnc1-c1ccc(C#N)cn1 (centres unmarked)

>  <Observed measurement>
≥ 80%

$$$$
>  <Molecule>
CC(NC(=O)c1cc(C(F)(F)F)cc(C2(C#N)CC2)c1)c1nccnc1-c1ccc(OCC(F)(F)F)cn1 (centres unmarked)

>  <Observed measurement>
≥ 80%

$$$$
>  <Molecule>
CC(NC(=O)c1cc(C2CC2)cc(C(F)(F)F)c1)c1nccnc1-c1ccc(OCC(F)(F)F)cn1 (centres unmarked)

>  <Observed measurement>
≥ 80%

$$$$
>  <Molecule>
CC(NC(=O)c1cc(C(F)(F)F)cc(C(F)(F)C2CC2)c1)c1nccnc1-c1ccc(C#N)cn1 (centres unmarked)

>  <Observed measurement>
≥ 80%

$$$$
>  <Molecule>
CC(NC(=O)c1cc(C(F)(F)F)cc(C(F)(F)C2CC2)c1)c1nccnc1-c1ncc(OCC(F)(F)F)cn1 (centres unmarked)

>  <Observed measurement>
≥ 80%

$$$$
>  <Molecule>
CC(NC(=O)c1cc(C(F)(F)F)nc(C2(C#N)CC2)c1)c1nccnc1-c1ccc(C#N)cn1 (centres unmarked)

>  <Observed measurement>
≥ 80%

$$$$
>  <Molecule>
CC(NC(=O)c1cc(C(F)(F)F)cc(C(C)(C)C#N)c1)c1nccnc1-c1ccc(OC(F)F)cn1 (centres unmarked)

>  <Observed measurement>
≥ 80%

$$$$
>  <Molecule>
CC(NC(=O)c1cc(C(F)(F)F)nc(C2(C#N)CC2)c1)c1nccnc1-c1ncc(OCC(F)F)cn1 (centres unmarked)

>  <Observed measurement>
≥ 80%

$$$$
>  <Molecule>
CC(NC(=O)c1cc(C2CC2)cc(C(F)(F)F)c1)c1nccnc1-c1ncc(OCC(F)(F)F)cn1 (centres unmarked)

>  <Observed measurement>
≥ 80%

$$$$
>  <Molecule>
CC(NC(=O)c1cc(C(F)(F)F)cc(S(=O)(=O)C(F)(F)F)c1)c1nccnc1-c1ncc(OC(F)F)cn1 (centres unmarked)

>  <Observed measurement>
≥ 80%

$$$$
>  <Molecule>
C[C@@H](c1nccnc1-c1ccc(C#N)cn1)N(CC1CC1)C(=O)c1cc(C(F)(F)F)cc(C(F)(F)C2CC2)c1

>  <Observed measurement>
≥ 80%

$$$$
>  <Molecule>
CC(NC(=O)c1cc(C(F)(F)F)cc(C2(C#N)CC2)c1)c1nccnc1-c1ccc(C#N)cn1 (centres unmarked)

>  <Observed measurement>
≥ 80%

$$$$
>  <Molecule>
CC(NC(=O)c1cc(C2CC2)cc(C(F)(F)F)c1)c1nccnc1-c1ncc(OC(F)F)cn1 (centres unmarked)

>  <Observed measurement>
≥ 80%

$$$$
>  <Molecule>
CC(NC(=O)c1cc(C(F)(F)F)cc(S(=O)(=O)C(F)(F)F)c1)c1nccnc1-c1ccc(C#N)cn1 (centres unmarked)

>  <Observed measurement>
≥ 80%

$$$$
>  <Molecule>
CC(NC(=O)c1cc(C(F)(F)F)cc(C2(C#N)CC2)c1)c1nccnc1-c1ncc(OCC(F)(F)F)cn1 (centres unmarked) [P2]

>  <Observed measurement>
≥ 80%

$$$$
>  <Molecule>
CC(NC(=O)c1cc(C(F)(F)F)cc(C(C)(C)C#N)c1)c1nccnc1-c1ccc(OCC(F)(F)F)cn1 (centres unmarked)

>  <Observed measurement>
≥ 80%

$$$$
>  <Molecule>
CC(NC(=O)c1cc(C(F)(F)F)cc(C2(C#N)CC2)c1)c1nccnc1-c1ccc(OCC(F)F)cn1 (centres unmarked)

>  <Observed measurement>
≥ 80%

$$$$
>  <Molecule>
CC(NC(=O)c1cc(C2CC2)cc(C(F)(F)F)c1)c1nccnc1-c1ccc(OC(F)F)cn1 (centres unmarked)

>  <Observed measurement>
≥ 80%

$$$$
>  <Molecule>
CC(NC(=O)c1cc(C2CC2)nc(C(F)(F)F)c1)c1nccnc1-c1ccc(C#N)cn1 (centres unmarked)

>  <Observed measurement>
≥ 80%

$$$$
>  <Molecule>
CC(NC(=O)c1cc(C(F)(F)F)cc(C(C)(C)C#N)c1)c1nccnc1-c1ncc(OCC(F)(F)F)cn1 (centres unmarked)

>  <Observed measurement>
≥ 80%

$$$$
>  <Molecule>
CC(NC(=O)c1cc(C(F)(F)F)nc(C2(C#N)CC2)c1)c1nccnc1-c1ccc(OCC(F)F)cn1 (centres unmarked)

>  <Observed measurement>
≥ 80%

$$$$
>  <Molecule>
CC(NC(=O)c1cc(C(F)(F)F)cc(C(F)(F)C2CC2)c1)c1nccnc1-c1ncc(OC(F)F)cn1 (centres unmarked)

>  <Observed measurement>
≥ 80%

$$$$
>  <Molecule>
CC(NC(=O)c1cc(C(F)(F)F)cc(S(=O)(=O)C(F)(F)F)c1)c1nccnc1-c1ncc(OCC(F)F)cn1 (centres unmarked)

>  <Observed measurement>
≥ 80%

$$$$
>  <Molecule>
CC(NC(=O)c1cc(OC(F)F)cc(C2(C#N)CC2)c1)c1nccnc1-c1ccc(C#N)cn1 (centres unmarked)

>  <Observed measurement>
≥ 80%

$$$$
>  <Molecule>
CC(NC(=O)c1cc(C(F)(F)F)cc(C2(C#N)CC2)c1)c1nccnc1-c1ncc(OCC(F)F)cn1 (centres unmarked)

>  <Observed measurement>
≥ 80%

$$$$
>  <Molecule>
CC(NC(=O)c1cc(C(F)(F)F)nc(C2(C#N)CC2)c1)c1nccnc1-c1ccc(OC(F)F)cn1 (centres unmarked) [P1]

>  <Observed measurement>
≥ 80%

$$$$
>  <Molecule>
CC(NC(=O)c1cc(C(F)(F)F)cc(S(=O)(=O)C(F)(F)F)c1)c1nccnc1-c1ccc(OC(F)F)cn1 (centres unmarked)

>  <Observed measurement>
≥ 80%

$$$$
>  <Molecule>
C[C@H](NC(=O)c1cc(C(F)(F)F)cc(C(F)(F)C2CC2)c1)c1nccnc1-c1ccc(C#N)cn1

>  <Observed measurement>
≥ 80%

$$$$
>  <Molecule>
CC(NC(=O)c1cc(C2CC2)cc(C(F)(F)F)c1)c1nccnc1-c1ccc(OCC(F)F)cn1 (centres unmarked)

>  <Observed measurement>
≥ 80%

$$$$
>  <Molecule>
CC(NC(=O)c1cc(C(F)(F)F)cc(C2(C#N)CC2)c1)c1nccnc1-c1ccc(OC(F)F)cn1 (centres unmarked)

>  <Observed measurement>
≥ 80%

$$$$
>  <Molecule>
CC(NC(=O)c1cc(C(F)(F)F)cc(C(C)(C)C#N)c1)c1nccnc1-c1ncc(OC(F)F)cn1 (centres unmarked)

>  <Observed measurement>
≥ 80%

$$$$
>  <Molecule>
CC(NC(=O)c1cc(C2CC2)cc(C(F)(F)F)c1)c1nccnc1-c1ccc(C#N)cn1 (centres unmarked)

>  <Observed measurement>
≥ 80%

$$$$

----------
Tested on: Myzus persicae (Green Peach Aphid)
Assay method text: Example B12: Myzus persicae (Green Peach Aphid), 96-well sucrose solution
Format: in vivo
Experimental conditions: 120 h, application rate of 50 ppm, 5 days after infestation

>  <Compound>
CC(NC(=O)c1cc(C(F)(F)F)cc(C2(C#N)CC2)c1)c1nccnc1-c1ncc(OC(F)F)cn1 (centres unmarked)

>  <mortality at 50 ppm>
≥ 80%

$$$$
>  <Compound>
CC(NC(=O)c1cc(C(F)(F)F)nc(C2(C#N)CC2)c1)c1nccnc1-c1ncc(OCC(F)(F)F)cn1 (centres unmarked)

>  <mortality at 50 ppm>
≥ 80%

$$$$
>  <Compound>
CC(NC(=O)c1cc(C(F)(F)F)nc(C2(C#N)CC2)c1)c1nccnc1-c1ncc(OCC(F)F)cn1 (centres unmarked)

>  <mortality at 50 ppm>
≥ 80%

$$$$
>  <Compound>
CC(NC(=O)c1cc(C(F)(F)F)nc(C2(C#N)CC2)c1)c1nccnc1-c1ncc(OC(F)F)cn1 (centres unmarked)

>  <mortality at 50 ppm>
≥ 80%

$$$$
>  <Compound>
CC(NC(=O)c1cc(C(F)(F)F)cc(C2(C#N)CC2)c1)c1nccnc1-c1ccc(C#N)cn1 (centres unmarked)

>  <mortality at 50 ppm>
≥ 80%

$$$$
